Tested on: SUM-159-PT
Assay: Antiproliferative activity against human SUM159 cells assessed as inhibition of cell growth incubated for 72 hrs by MTT assay
Format: functional, cell-based

- molecule: "C=C1C(=O)O[C@H]2[C@H]1CC/C(COc1ccc(-c3cc(=S)ss3)cc1)=C\\CC[C@@]1(C)O[C@@H]21"
  uom: "µM"
  IC50: 1.51
- molecule: "C=C1C(=O)O[C@H]2[C@H]1CC/C(CO)=C\\CC[C@@]1(C)O[C@@H]21"
  uom: "µM"
  IC50: 7.45
- molecule: "C=C1C(=O)O[C@H]2[C@H]1C(COC(=O)/C=C/c1ccccc1OCCc1ccc(-c3cc(=S)ss3)cc1)C/C=C\\CC[C@@]1(C)O[C@@]21C (stereo partly drawn)"
  uom: "µM"
  IC50: 1.06
